Test system: PC-3 prostate
Test: NCI-60 one-dose screen, 48 h (100 = growth as untreated, 0 = no growth, -100 = all killed)
Conditions: 10 µM unless noted
This is part of a sample that, as a whole, favours compounds with a hit. Of some 83,000 tested, about 20% had one in any assay.
quantity.name: growth (%)

[[record]]
compound = "CCN1C(=O)N(CC)C2SC(N/N=C/c3ccccc3)=NC21 (centres undefined)"
uom = "%"
result_number = 28

[[record]]
compound = "C=CCn1c(SCC(=O)Nc2cccc(C(=O)/C=C/c3ccc(C)cc3)c2)nc2ccccc2c1=O"
uom = "%"
result_number = 72.5

[[record]]
compound = "COc1cc2oc(-c3cccc(NC(=O)c4cc(NC(=O)[C@H](C)N)ccc4Cl)c3)cc(=O)c2c(OC)c1OC"
uom = "%"
result_number = 81.2

[[record]]
compound = "COc1ccc(OC)c([C@H]2c3[nH]c4ccccc4c3C[C@H]3C(=O)N(CCCCCCC(=O)NO)CC(=O)N23)c1"
uom = "%"
result_number = 77.9


---

Tested on: NCI/ADR-RES ovarian
Experiment: NCI-60 one-dose screen, 48 h
Conditions: 10 µM unless noted
Procedure: Growth inhibition of the NCI/ADR-RES human […] tumor cell line is measured as a screen for anti-cancer activity. Cells are grown in 96 well plates and exposed to the test compound for 48 hours. Compounds are tested at a single concentration, which is 10^-5 M for most compounds. The reported endpoint is percent growth (GI% or GIPRCNT), where numbers from 0 - 100% represent growth inhibition, and numbers from -100% - 0 represent cell death. For example, a value of 40 represents 60% growth inhibition. […]
This is part of a sample that, as a whole, favours compounds with a hit. Of some 83,000 tested, about 20% had one in any assay. Calls of active or inactive are those of the source. How the source made its calls: active means growth percent below 10; inactive means the rest.
Classes used: Y = active, N = inactive

[[record]]
molecule = "COc1c([C@@H](CC(C)C)OC(C)=O)ccc2c1C(=O)OCc1cc(C)cc(O)c1O2"
answer_label = "N"

[[record]]
molecule = "O=S(=O)(Nc1ccc(-c2nc(-c3cccc(O)c3)c(-c3ccnc(Br)c3)[nH]2)cc1)c1ccccc1"
answer_label = "N"

[[record]]
molecule = "O=c1c2c(O)cccc2oc2c3c(cc(O)c12)O[C@H]1OC=C[C@@H]31"
answer_label = "N"

[[record]]
molecule = "COc1cc(/C=N/Nc2ccnc3cc(Cl)ccc23)cc(OC)c1O"
answer_label = "Y"

[[record]]
molecule = "O=C1c2c(c3c4cc(Br)ccc4[nH]c3c3ccc4ccccc4c23)C(=O)N1CCN1CCCCC1"
answer_label = "Y"

[[record]]
molecule = "COc1cc(NC2=C(Cl)C(=O)c3nc(C)ccc3C2=O)cc(OC)c1"
answer_label = "Y"

[[record]]
molecule = "CC(C)=CCc1c(O)c(CC=C(C)C)c2c(c1O)C(=O)C1=C[C@@H]3C[C@H]4C(C)(C)O[C@@](C/C=C(\\C)C(=O)O)(C3=O)[C@@]14O2"
answer_label = "N"

[[record]]
molecule = "C(=C(\\C1=NCCN1)n1cnc2ccccc21)/c1cccc2ccccc12"
answer_label = "N"

[[record]]
molecule = "CN1CCN(c2ccc(NC(=O)Nc3ccc4c(ccn4-c4cccc(C(N)=O)n4)c3)cc2C(F)(F)F)CC1"
answer_label = "N"

[[record]]
molecule = "C=C(C)[C@@H]1CC[C@]2(COS(C)(=O)=O)CC[C@]3(C)[C@H](CC[C@@H]4[C@@]5(C)CCCNC(C)(C)[C@@H]5CC[C@]43C)[C@@H]12"
answer_label = "N"

[[record]]
molecule = "CC(C)SC1=NC(=C(C(=N1)NC2=ClC=CC=C2)C#N)C3=CC=CC=C3"
answer_label = "N"

[[record]]
molecule = "CS(=O)c1nccc(-c2c(-c3ccc(F)c(OCc4ccc(F)cc4)c3)nc3sccn23)n1 (stereo not drawn)"
answer_label = "N"

[[record]]
molecule = "Nc1n[nH]c2cccc(C#Cc3cccc(NC(=O)c4cccc(OC(F)(F)F)c4)c3)c12"
answer_label = "N"

[[record]]
molecule = "N#Cc1c(NC(=O)c2ccc(F)c(Cl)c2)sc2c1CCC(=O)C2"
answer_label = "Y"

[[record]]
molecule = "Cc1ccccc1NC1CC(=O)N(c2ccc(Cl)cc2Cl)C1=O (stereo not drawn)"
answer_label = "N"

[[record]]
molecule = "COc1ccc([C@@H]2[C@@H](O)C(=O)N2c2cc(OC)c(OC)c(OC)c2)cc1"
answer_label = "N"

[[record]]
molecule = "Cc1occc1-c1nc2s/c(=C\\c3cn(-c4ccccc4)nc3-c3ccccc3)c(=O)n2n1"
answer_label = "N"

[[record]]
molecule = "COc1ccc(-c2cc(-c3cccc4ccccc34)n3c(n2)nc2ccccc23)cc1OC"
answer_label = "N"


---

System: NCI-H460 lung
Experiment: NCI-60 one-dose screen, 48 h (100 = growth as untreated, 0 = no growth, -100 = all killed)
Conditions: 10 µM unless noted
Compounds without any hit were thinned out: in the full panel of roughly 83,000, 20% have a hit.
Note: every record was labeled by where its growth sits among lo = under 20%, mid = from 20% up to 90%, hi = 90% and over

[[record]]
compound = "COc1ccc(/C=N\\NC(=O)c2ccc3nc(-c4ccc(Br)cc4)[nH]c3c2)cc1"
system_tested = "NCI-H460 lung"
answer_label = "lo"

[[record]]
compound = "COc1ccccc1/C=C/C=N/NC1=NC2C(S1)N(C)C(=O)N2c1ccccc1 (centres undefined)"
system_tested = "NCI-H460 lung"
answer_label = "lo"

[[record]]
compound = "CC1(COc2ccc3ncc(C#Cc4cncc(C(=O)Nc5cc(C(C)(C)C)on5)c4)n3n2)COC1"
system_tested = "NCI-H460 lung"
answer_label = "mid"

[[record]]
compound = "Oc1ccc(CSc2nnc(-c3cnccn3)n2-c2ccccc2)c2cccnc12"
system_tested = "NCI-H460 lung"
answer_label = "lo"

[[record]]
compound = "COc1ccc(CN2C(=O)/C(=C/c3nc(CO)cs3)SC2=S)cc1"
system_tested = "NCI-H460 lung"
answer_label = "hi"

[[record]]
compound = "Cc1[nH]nc2ccc(-c3nc4cnc(N5CCN(C)CC5)cn4c3Nc3ccc(F)cc3Br)cc12"
system_tested = "NCI-H460 lung"
answer_label = "mid"

[[record]]
compound = "CN1C(=O)N(C)C2Nn3c(s/c(=C\\c4ccccn4)c3=O)=NC21 (centres undefined)"
system_tested = "NCI-H460 lung"
answer_label = "hi"

[[record]]
compound = "Cc1ccc(NC(=O)N[C@@H](Cc2cc(F)cc(F)c2)C(=O)NC2C(=O)N3CCC[C@H]3C(=O)N3CCCC[C@H]3C(=O)N[C@@H](C)C(=O)N3C[C@H](C)C[C@H]3C(=O)O[C@H]2C)c(F)c1 (some centres undefined)"
system_tested = "NCI-H460 lung"
answer_label = "lo"

[[record]]
compound = "COCCOc1ccc(-c2csc(NC(C)=O)n2)cc1NS(=O)(=O)c1cccc2c(N(C)C)cccc12"
system_tested = "NCI-H460 lung"
answer_label = "hi"

[[record]]
compound = "COc1cc(-c2nc(SCc3ccc(C)cc3)[nH]c(=O)c2C#N)ccc1OCc1ccccc1"
system_tested = "NCI-H460 lung"
answer_label = "hi"

[[record]]
compound = "O=C(NCCCNc1cc(-c2cn(-c3ccccc3)nc2-c2cccc(O)c2)ccn1)Nc1cccc(C(F)(F)F)c1"
system_tested = "NCI-H460 lung"
answer_label = "mid"

[[record]]
compound = "O=C1NC(=O)c2c1c1c3ccccc3ccc1c1[nH]c3ccccc3c21"
system_tested = "NCI-H460 lung"
answer_label = "lo"

[[record]]
compound = "O=C(/C=C1\\C=CN(CCCCF)c2ccccc21)n1ccc2ccccc21"
system_tested = "NCI-H460 lung"
answer_label = "hi"

[[record]]
compound = "COc1cc(C(=O)C[n+]2ccc3ccccc3c2)cc(OC)c1OC"
system_tested = "NCI-H460 lung"
answer_label = "hi"

[[record]]
compound = "Oc1ccc(CSc2nnc(-c3ccccc3)o2)c2cccnc12"
system_tested = "NCI-H460 lung"
answer_label = "lo"

[[record]]
compound = "CC1COc2c(N3CCN(C)CC3)c(F)cc3c(=O)c(C(=O)N/N=C/c4cc[nH]c4)cn1c23 (centres undefined)"
system_tested = "NCI-H460 lung"
answer_label = "lo"


---

Test system: SR leukemia
Test: NCI-60 one-dose screen, 48 h (100 = growth as untreated, 0 = no growth, -100 = all killed)
Details: 10 µM unless noted
Compounds without any hit were thinned out: in the full panel of roughly 83,000, 20% have a hit.
Values of growth strictly less than 50% map to Condition met, and values of at least 50% map to Condition not met.

[[record]]
structure_notation = "Nc1n[nH]c2cccc(C#Cc3cccc(NC(=O)c4cccc(OC(F)(F)F)c4)c3)c12"
answer_label = "Condition met"

[[record]]
structure_notation = "CCN(CC)CCN1C(=O)c2c(c3c4cccnc4[nH]c3c3ccc4ccccc4c23)C1=O"
answer_label = "Condition met"

[[record]]
structure_notation = "COc1cc(C(=O)C[n+]2ccc3ccccc3c2)cc(OC)c1OC"
answer_label = "Condition not met"

[[record]]
structure_notation = "CCOC(=O)c1nn(-c2ccccc2)c(=O)c2c(N)c(C#N)c(-c3cccs3)cc12"
answer_label = "Condition not met"

